I'd appreciate it if you could supply pIC50 values for the items below.
Biological target: human recombinant USP2a catalytic domain (residues 258-605) (Homo sapiens)
Sequence (O75604 258-605): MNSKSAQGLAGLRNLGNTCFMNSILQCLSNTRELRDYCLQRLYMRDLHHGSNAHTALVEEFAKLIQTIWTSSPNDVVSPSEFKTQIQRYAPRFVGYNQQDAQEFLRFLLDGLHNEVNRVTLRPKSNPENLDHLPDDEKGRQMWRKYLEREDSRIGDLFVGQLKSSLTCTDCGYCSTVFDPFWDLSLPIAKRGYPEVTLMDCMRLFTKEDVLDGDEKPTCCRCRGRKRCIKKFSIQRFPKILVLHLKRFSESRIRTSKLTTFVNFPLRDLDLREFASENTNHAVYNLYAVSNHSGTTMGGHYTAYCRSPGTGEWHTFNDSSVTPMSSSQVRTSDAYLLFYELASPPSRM
Assay: Ub-AMC hydrolysis assay
Conditions: read-out: IC50, USP2a activity, Ub-AMC Assay; 30 min pre-incubation
Answers are plain numbers, as −log10 of the molar value.

Past entries and their recorded results:
COMPOUND	pIC50
Cc1ccc(/C=C2\CNC/C(=C\c3ccc(C)cc3)C2=O)cc1 [NSC 632839, reference compound]	4.41
C[C@H](CCC(=O)NCC#N)[C@H]1CC[C@H]2[C@@H]3CC[C@@H]4C[C@H](O)CC[C@]4(C)[C@H]3CC[C@]12C	5.13
C[C@H](CCC(N)=O)[C@H]1CC[C@H]2[C@@H]3CC[C@@H]4C[C@H](O)CC[C@]4(C)[C@H]3CC[C@]12C [LCANH2, 3-hydroxylithocholanamide]	4.55
C[C@H](CCC(=O)O)[C@H]1CC[C@H]2[C@@H]3CC[C@@H]4C[C@H](O)CC[C@]4(C)[C@H]3CC[C@]12C [LCA, Lithocholic acid, reference compound]	4.51

Please look at the following compound next.
Which pIC50 is listed for `C[C@H](CCC(=O)O)[C@H]1CC[C@H]2[C@@H]3CC[C@@H]4CC(=O)CC[C@]4(C)[C@H]3CC[C@]12C` ?
4.49
